# credit: ChEMBL document CHEMBL3826880

So I've got a bunch of molecules here, and I need their pIC50 values.
Assay: Inhibition of Wnt/beta-catenin pathway in human HEK293 cells after 15 hrs by TOPflash dual luciferase reporter gene assay
Format: cell-based
Conditions: HEK293, 15 h
Keep it numeric: pIC50 is minus log10 of the concentration in mol/L.

Sample "CC1(C)Oc2cc3oc(=O)ccc3cc2C[C@@H]1OC(=O)/C=C/c1ccc(O)c(O)c1" ; pIC50 observed: 4.91

Sample "CC(C)=CC(=O)O[C@H]1Cc2cc3ccc(=O)oc3cc2OC1(C)C" ; pIC50 observed: 3.75
